# Tested on: SW620
# experimentalDetails: Cell proliferation assay SW620
# Format: cell-based
# conditionContext: Homo sapiens, SW-620, Colon, 72 hours, read-out: IC50 antiproliferative activity
Listed next: entries and their corresponding IC50.

Which IC50 is reported with SW620 for this entry: COc1ccc(-c2nc(N3CCOCC3)c3sc(CN(C)c4ncc(C(=O)NO)cn4)cc3n2)cn1 [Compound 1] ? < 0.01 µM

The record that follows has no IC50 shown yet.
Hello, I am looking for reported IC50 with SW620 for CS(=O)(=O)N1CCN(Cc2cc3nc(-c4cccc5[nH]ncc45)nc(N4CCOCC4)c3s2)CC1 [GDC-0941, reference compound] . Could you help? > 10 µM

###

In this section we review reported IC50 values for a set of compounds.
# Tested on: ZR-75-1
# experimentalDetails: Cell proliferation assay ZR-75-1
# Type: cell-based
# conditionContext: Homo sapiens, Breast, 72 hours, read-out: IC50 antiproliferative activity
# Protocol: Growth inhibition was accessed by adenosine triphosphate (ATP) content assay using Promega CellTiter-Glo kit. Promega CellTiter-Glo kit is an ATP monitoring system based on firefly luciferase. […] The mixture was shaken and incubated for 30 minutes and subsequently the luminescence was measured. IC50 values were calculated using PRISM software (GraphPad Software) with sigmoidal dose-response curve fitting.

Find the recorded IC50 belonging to COc1ccc(-c2nc(N3CCOCC3)c3sc(CN(C)c4ncc(C(=O)NO)cn4)cc3n2)cn1 [Compound 1] and report it. 10 to 100 nM

Next compound, IC50 to be filled in.
Can you share its IC50? I mean this compound: CS(=O)(=O)N1CCN(Cc2cc3nc(-c4cccc5[nH]ncc45)nc(N4CCOCC4)c3s2)CC1 [GDC-0941, reference compound] 100 to 1000 nM

###

Overview of reported pIC50 across a group of compounds:
# System: SWI-116
# experimentalDetails: Cell proliferation assay SWI-116
# Assay type: cell-based
# conditionContext: Homo sapiens, Colon, 72 hours, read-out: IC50 antiproliferative activity
pIC50: −log10 of the molar value.

Which pIC50 reading was recorded for the compound COc1ccc(-c2nc(N3CCOCC3)c3sc(CN(C)c4ncc(C(=O)NO)cn4)cc3n2)cn1 ? > 8.00

Others:
Which pIC50 is reported for this compound? CS(=O)(=O)N1CCN(Cc2cc3nc(-c4cccc5[nH]ncc45)nc(N4CCOCC4)c3s2)CC1 [GDC-0941, reference compound] < 5.00

###

# System: H460
# experimentalDetails: Cell proliferation assay H460
# Format: cell-based
# conditionContext: Homo sapiens, NCI-H460, NSCLC, 72 hours, read-out: IC50 antiproliferative activity
pIC50: −log10 of the molar value.
pIC50 values, listed per item

Need pIC50, item COc1ccc(-c2nc(N3CCOCC3)c3sc(CN(C)c4ncc(C(=O)NO)cn4)cc3n2)cn1 [Compound 1] 7.00 to 8.00

Item under review: CS(=O)(=O)N1CCN(Cc2cc3nc(-c4cccc5[nH]ncc45)nc(N4CCOCC4)c3s2)CC1 [GDC-0941, reference compound] . Reported pIC50? < 5.00

###

# experimentalDetails: Pharmacokinetics in SCID mice bearing Daudi tumors
# Format: in vivo
# conditionContext: female, mouse; Plasma; oral gavage, dose not stated; Daudi tumor-bearing Scid mice
readoutType: Tmax (min)
Express your answer in min, writing the number without its unit.

For COc1ccc(-c2nc(N3CCOCC3)c3sc(CN(C)c4ncc(C(=O)NO)cn4)cc3n2)cn1 , what is its reported Tmax? 14.4

###

# experimentalDetails: Pharmacokinetics in nude mice bearing H2122 tumors
# Format: in vivo
# conditionContext: mouse; Plasma; PO 50 mg/kg; H2122 tumor-bearing nude mice
readoutType: Cmax (ng/mL)
Record the value in ng/mL, omitting the unit from your answer.

GET /values?readout=Cmax&item= COc1ccc(-c2nc(N3CCOCC3)c3sc(CN(C)c4ncc(C(=O)NO)cn4)cc3n2)cn1 186

###

# experimentalDetails: Pharmacokinetics in nude mice bearing H2122 tumors
# Type: in vivo
# conditionContext: mouse, Tumor, PO 50 mg/kg
readoutType: Cmax (ng/mL)
Give the number; ng/mL is assumed, so skip it.

Requested read-out: Cmax. Entry: COc1ccc(-c2nc(N3CCOCC3)c3sc(CN(C)c4ncc(C(=O)NO)cn4)cc3n2)cn1 [Compound 1] 154
